Measured values drawn from ChEMBL document CHEMBL1150027 for this set.

// values below are reported selectivity ratio
# test description: Ratio of IC50 to EC50 was expressed as therapeutic index
# test context: read-out: TI

[[record]]
smiles_code = "O=c1cc(-c2ccc(O)cc2)oc2cc(O)cc(O)c12"
measured_attribute = "selectivity ratio"
recorded_result = 4


Give its selectivity ratio value. Item: O=c1c(O[C@@H]2O[C@H](CO)[C@@H](O)[C@H](O)[C@H]2O)c(-c2ccc(O)cc2)oc2cc(O)cc(O)c12
< 1.25

Give its selectivity ratio value. Item: O=c1c(O)c(-c2ccc(O)c(O)c2)oc2cc(O)cc(O)c12
< 2.5

Give its selectivity ratio value. Item: O=c1cc(-c2ccc(O)cc2)oc2cc(O[C@@H]3O[C@H](CO)[C@@H](O)[C@H](O)[C@H]3O)cc(O)c12
> 55.6
